Taken from PubChem BioAssay AID1645866.

- target: Ubiquitin carboxyl-terminal hydrolase 28 (Homo sapiens)
- assay_notes: Concentration-response biochemical assay confirming initial hits as inhibitors of ubiquitin-specific protease 28 (AID 1645866)
- conditions_used: purified USP28, ubiquitin-rhodamine fluorescence, 30 min
Active and inactive are the calls of the source.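 How the source made its calls: active means in confirmatory dose-response testing, peak deubiquitinase inhibition of 30% or more; inactive means the rest.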
readout_name: IC50

Any idea what its IC50 is? The molecule is CCOC(=O)c1cn(C2CC2)c2cc(N3CCNCC3)c([N+](=O)[O-])cc2c1=O
> 50 µM (inactive)

Next: O=C(Nc1ccc2c(c1)OCO2)c1cc(-c2cccnc2)n(-c2ccccc2)n1
8.27 µM

Next: Cc1ccc(C)c(Nc2cc(C)nc3nc(-c4ccco4)nn23)c1
> 50 µM (inactive)

Next: COc1cc(N)c(Cl)cc1C(=O)OCC(=O)c1ccc2c(c1)OCCO2
6.12 µM

Next: COc1ccc(-c2cc(C(C)=O)c(C)n2CCC(=O)Nc2ccc(OC)cc2OC)cc1
43.1 µM

Next: COc1ccc(NC(=O)CSc2nc(N)c3c4c(sc3n2)COC(C)(C)C4)cc1
45.9 µM

Next: O=C(CN1C(=O)C2CCCC2=Nc2ccccc21)Nc1ccc(F)cc1F (stereo not given)
26.2 µM

Next: COc1ccc(C(=O)Nc2nc3n(n2)C(c2ccccc2)CC(=O)N3)cc1 (stereo not given)
12.5 µM

Next: O=C(CNC(=O)c1cc2ccccc2[nH]1)Nc1ccc2c(c1)OCCO2
45.9 µM

Next: O=C(COC(=O)c1cc2c(s1)CCC2)c1ccc2[nH]c(=O)[nH]c2c1
6.48 µM
